Values compiled from patent US20260364184A1.

Below is a list of entries, each paired with its recorded inhibition at 0.5 µM value.
Test system: Human lung cancer cell line (H292)
Assay: Inhibition of H292 cell proliferation (CellTiter luminescent viability)
Type: cell-based
Details: NCI-H292, Table IE2, CDK4/6 inhibitor-based, H292, 500 nM, 96 hours, read-out: Inhibition Rate at 500 nM (%)

The cases that follow already have their inhibition at 0.5 µM on record.
CC(=O)c1c(C)c2cnc(Nc3ccc(N4CCN(Cc5ccc6c(c5)CN(N5CCC(=O)NC5=O)C6=O)CC4)cn3)nc2n(C2CCCC2)c1=O [GT-06573]: 40 to 60%
CC(=O)c1c(C)c2cnc(Nc3ccc(N4CCC(N5CCN(Cc6ccc7c(c6)C(=O)N(N6CCC(=O)NC6=O)C7=O)CC5)CC4)cn3)nc2n(C2CCCC2)c1=O [GT-06583]: 40 to 60%

Next:
Value lookup for inhibition at 0.5 µM; key = CN(C)C(=O)c1cc2cnc(Nc3ccc(N4CCC(N(C)CC5CCN(c6ccc7c(c6)C(=O)N(N6CCC(=O)NC6=O)C7=O)CC5)CC4)cn3)nc2n1C1CCCC1 [GT-06489]
40 to 60%

----------
Tested on: Human Multiple myeloma cell line (MM.1S)
Test: Inhibition of MM.1S cell proliferation (CellTiter luminescent viability)
Format: cell-based
Conditions: Homo sapiens, MM1.S, Table IG1, FAK inhibitor-based, 10 nM, 96 hours, read-out: Inhibition Rate at 10 nM (%)
measurement_label: inhibition at 0.01 µM

For the compound "CNC(=O)c1ccccc1Nc1cc(Nc2cc(C)c(C3CCN(Cc4ccc5c(c4)C(=O)N(N4CCC(=O)NC4=O)C5=O)CC3)cc2OC(C)C)ncc1C(F)(F)F" , what inhibition at 0.01 µM is on record?
20 to 30%

----------
# maps each entry to its inhibition at 0.01 µM
Test system: Human lung cancer cell line (H292)
Assay: Inhibition of H292 cell proliferation (CellTiter luminescent viability)
Assay type: cell-based
Conditions: NCI-H292, Table IM1, CDK9 inhibitor-based, H292, 10 nM, 96 hours, read-out: Inhibition Rate at 10 nM (%)

# example entries with known answers
O=C(NC1CCNCC1)c1[nH]ncc1NC(=O)c1c(Cl)cccc1Cl [AT7519, reference compound]: -5 to 0%
N#CC1(CNc2cccc(-c3cc(NC4CCN(CC5CCN(c6ccc7c(c6)C(=O)N(N6CCC(=O)NC6=O)C7=O)CC5)CC4)ncc3Cl)n2)CCOCC1: -5 to 0%
O=C1CCN(N2C(=O)c3ccc(N4CCC(CN5CCN(c6ccc(CC(=O)Nc7cc(C8CCC8)[nH]n7)cc6)CC5)CC4)cc3C2=O)C(=O)N1: 40 to 50%

Please report the recorded inhibition at 0.01 µM for "O=C1CCN(N2Cc3cc(CN4CCN(c5ccc(CC(=O)Nc6cc(C7CCC7)[nH]n6)cc5)CC4)ccc3C2=O)C(=O)N1" .
20 to 30%

Look at this compound and give its reported inhibition at 0.01 µM. "Cn1ncc(-c2nc(NC3CCN(CC4CCN(c5ccc6c(c5)C(=O)N(N5CCC(=O)NC5=O)C6=O)CC4)CC3)ncc2Cl)c1CC1CC1"
0 to 5%

If you can, please state the reported inhibition at 0.01 µM value of "Cn1ncc(-c2nc(NC3CCN(Cc4ccc5c(c4)CN(N4CCC(=O)NC4=O)C5=O)CC3)ncc2Cl)c1CC1CC1" .
20 to 30%

May I ask what inhibition at 0.01 µM has been recorded for "N#CC1(CNc2cccc(-c3cc(NC4CCN(Cc5ccc6c(c5)C(=O)N(N5CCC(=O)NC5=O)C6=O)CC4)ncc3Cl)n2)CCOCC1" ?
20 to 30%

Consider the compound "N#CC1(CNc2cccc(-c3cc(NC4CCN(CC5CCN(c6cccc7c6C(=O)N(N6CCC(=O)NC6=O)C7=O)CC5)CC4)ncc3Cl)n2)CCOCC1" and give its measured inhibition at 0.01 µM.
15 to 20%

Report inhibition at 0.01 µM for "Cn1ncc(-c2nc(NC3CCN(CC4CCN(c5cccc6c5C(=O)N(N5CCC(=O)NC5=O)C6=O)CC4)CC3)ncc2Cl)c1CC1CC1" please.
5 to 10%

Suppose we examine the compound "N#CC1(CNc2nc(-c3cc(NC4CCN(CC5CCN(c6ccc7c(c6)C(=O)N(N6CCC(=O)NC6=O)C7=O)CC5)CC4)ncc3Cl)cs2)CCOCC1" ; what inhibition at 0.01 µM value has been reported?
5 to 10%
